FYI, the data here is from ChEMBL document CHEMBL4052661.

target: Mitogen-activated protein kinase kinase kinase 20 (Homo sapiens); assay: Inhibition of N-terminal GST-tagged recombinant human full-length ZAK expressed in baculovirus infected Sf9 insect cells using MBP as substrate after 30 mins by ADP-Glo assay
Sequence (Q9NYL2 whole entry): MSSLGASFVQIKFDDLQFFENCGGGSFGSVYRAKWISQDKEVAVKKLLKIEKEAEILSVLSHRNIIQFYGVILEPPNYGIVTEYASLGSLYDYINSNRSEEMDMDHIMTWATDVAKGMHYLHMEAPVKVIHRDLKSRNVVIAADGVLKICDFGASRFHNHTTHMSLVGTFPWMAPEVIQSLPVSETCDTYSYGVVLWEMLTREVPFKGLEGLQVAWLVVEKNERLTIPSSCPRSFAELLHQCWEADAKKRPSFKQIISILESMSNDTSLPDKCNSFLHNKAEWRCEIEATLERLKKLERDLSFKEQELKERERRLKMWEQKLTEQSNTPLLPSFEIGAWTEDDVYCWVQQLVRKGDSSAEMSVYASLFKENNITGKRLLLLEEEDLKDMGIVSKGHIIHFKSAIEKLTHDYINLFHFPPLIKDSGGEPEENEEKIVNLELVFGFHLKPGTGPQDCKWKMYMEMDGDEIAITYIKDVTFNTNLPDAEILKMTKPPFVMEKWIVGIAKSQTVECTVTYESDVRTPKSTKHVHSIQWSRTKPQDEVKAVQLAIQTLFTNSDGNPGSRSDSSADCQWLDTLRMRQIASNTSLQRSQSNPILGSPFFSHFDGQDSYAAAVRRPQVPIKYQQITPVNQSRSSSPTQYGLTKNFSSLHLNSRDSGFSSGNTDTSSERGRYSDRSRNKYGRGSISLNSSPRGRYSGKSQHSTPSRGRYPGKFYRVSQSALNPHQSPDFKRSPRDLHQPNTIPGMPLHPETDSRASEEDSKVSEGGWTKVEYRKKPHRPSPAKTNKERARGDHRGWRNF
pIC50: −log10 of the molar value.
readout name: pIC50

I. COc1n[nH]c2ncc(C#Cc3c(F)ccc(NS(=O)(=O)c4cccc(Cl)c4Cl)c3F)cc12
II. COc1n[nH]c2ncc(C#Cc3c(F)ccc(NS(=O)(=O)c4ccccc4)c3F)cc12
III. O=S(=O)(Nc1ccc(F)c(C#Cc2cnc3[nH]nc(OC4CCCC4)c3c2)c1F)c1cccc(Cl)c1
// ascending sort on recorded pIC50 To answer, arrange all of the labels according to the requested order.
III, II, I
(III: 6.84, II: 7.72, I: 8.02)

---

molecular target: Serine/threonine-protein kinase SIK1 (Homo sapiens); experiment: Binding affinity to partial length human SIK expressed in Escherichia coli BL21 by active-site-dependent competition assay
Sequence (P57059 whole entry): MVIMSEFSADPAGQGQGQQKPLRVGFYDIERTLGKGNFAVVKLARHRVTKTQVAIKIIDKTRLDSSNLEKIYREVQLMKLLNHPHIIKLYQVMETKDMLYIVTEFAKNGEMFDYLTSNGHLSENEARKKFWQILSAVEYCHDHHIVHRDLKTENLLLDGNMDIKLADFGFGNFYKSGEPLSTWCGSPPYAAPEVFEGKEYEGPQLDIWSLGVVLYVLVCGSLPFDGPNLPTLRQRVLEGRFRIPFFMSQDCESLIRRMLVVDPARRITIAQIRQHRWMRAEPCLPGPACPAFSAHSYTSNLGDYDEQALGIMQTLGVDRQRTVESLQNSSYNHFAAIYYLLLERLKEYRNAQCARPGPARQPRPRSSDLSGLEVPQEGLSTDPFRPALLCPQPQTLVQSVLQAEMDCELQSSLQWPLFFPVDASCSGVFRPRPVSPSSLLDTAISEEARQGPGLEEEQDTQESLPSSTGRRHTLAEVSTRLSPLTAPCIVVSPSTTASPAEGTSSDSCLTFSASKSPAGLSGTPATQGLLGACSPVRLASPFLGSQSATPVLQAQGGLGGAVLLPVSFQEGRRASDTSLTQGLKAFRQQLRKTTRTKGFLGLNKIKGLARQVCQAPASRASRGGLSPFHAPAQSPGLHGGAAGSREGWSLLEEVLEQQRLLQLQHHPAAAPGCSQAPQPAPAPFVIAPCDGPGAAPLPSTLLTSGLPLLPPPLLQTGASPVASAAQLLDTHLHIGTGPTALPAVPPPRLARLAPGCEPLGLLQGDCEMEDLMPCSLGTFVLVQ
readout name: pKd
Formally, pKd is defined as -log10 of the concentration c, with c in mol/L.

Name the recorded pKd for COc1n[nH]c2ncc(C#Cc3c(F)ccc(NS(=O)(=O)c4cccc(C#N)c4)c3F)cc12 .
7.35

---

target: Tyrosine-protein kinase Srms (Homo sapiens, UniProt Q9H3Y6); assay: Binding affinity to partial length human SRMS expressed in HEK293 cells by active-site-dependent competition assay
Sequence (Q9H3Y6 whole entry): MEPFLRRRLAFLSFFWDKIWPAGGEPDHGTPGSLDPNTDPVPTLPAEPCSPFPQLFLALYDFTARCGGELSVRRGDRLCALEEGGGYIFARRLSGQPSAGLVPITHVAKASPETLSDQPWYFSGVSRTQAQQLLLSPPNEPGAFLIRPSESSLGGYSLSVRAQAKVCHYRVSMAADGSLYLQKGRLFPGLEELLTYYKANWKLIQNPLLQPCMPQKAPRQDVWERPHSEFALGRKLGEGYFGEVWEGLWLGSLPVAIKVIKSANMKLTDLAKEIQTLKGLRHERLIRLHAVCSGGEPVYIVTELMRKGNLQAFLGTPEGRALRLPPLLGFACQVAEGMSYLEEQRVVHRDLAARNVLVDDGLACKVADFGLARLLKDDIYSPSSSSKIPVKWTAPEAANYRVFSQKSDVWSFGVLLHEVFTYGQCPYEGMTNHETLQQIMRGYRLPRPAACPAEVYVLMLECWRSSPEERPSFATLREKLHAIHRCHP
readout name: Kd (nM)
Express your answer in nM, writing the number without its unit.

Name the recorded Kd for COc1n[nH]c2ncc(C#Cc3c(F)ccc(NS(=O)(=O)c4cccc(C#N)c4)c3F)cc12 .
64

---

target: Mast/stem cell growth factor receptor Kit (Homo sapiens); test: Binding affinity to partial length human KIT expressed in Escherichia coli BL21 by active-site-dependent competition assay
Sequence (P10721 whole entry): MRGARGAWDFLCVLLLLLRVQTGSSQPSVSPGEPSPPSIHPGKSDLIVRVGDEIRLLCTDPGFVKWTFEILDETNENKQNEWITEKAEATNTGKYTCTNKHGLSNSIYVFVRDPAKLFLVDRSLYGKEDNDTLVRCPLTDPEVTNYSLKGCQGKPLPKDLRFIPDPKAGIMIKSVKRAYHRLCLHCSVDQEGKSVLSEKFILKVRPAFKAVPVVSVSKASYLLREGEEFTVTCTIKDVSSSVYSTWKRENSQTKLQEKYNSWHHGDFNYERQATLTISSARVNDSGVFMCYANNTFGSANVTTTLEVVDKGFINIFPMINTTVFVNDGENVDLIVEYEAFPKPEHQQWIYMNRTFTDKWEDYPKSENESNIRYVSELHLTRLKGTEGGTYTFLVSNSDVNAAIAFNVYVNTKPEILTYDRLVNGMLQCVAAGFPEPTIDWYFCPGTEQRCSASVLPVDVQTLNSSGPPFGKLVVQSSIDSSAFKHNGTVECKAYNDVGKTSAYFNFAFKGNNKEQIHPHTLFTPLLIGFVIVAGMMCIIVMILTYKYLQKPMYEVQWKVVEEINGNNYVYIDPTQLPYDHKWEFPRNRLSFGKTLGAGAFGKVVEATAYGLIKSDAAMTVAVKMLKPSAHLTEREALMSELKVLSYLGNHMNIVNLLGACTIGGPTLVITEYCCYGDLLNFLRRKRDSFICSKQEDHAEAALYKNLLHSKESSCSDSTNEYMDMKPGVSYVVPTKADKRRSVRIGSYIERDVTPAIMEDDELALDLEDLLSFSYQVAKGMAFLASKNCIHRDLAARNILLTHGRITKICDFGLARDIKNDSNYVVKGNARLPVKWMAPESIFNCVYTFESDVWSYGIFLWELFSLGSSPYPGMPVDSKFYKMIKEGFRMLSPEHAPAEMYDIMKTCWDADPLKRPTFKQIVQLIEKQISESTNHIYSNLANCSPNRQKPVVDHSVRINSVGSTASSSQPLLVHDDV
readout name: Kd (nM)
Express your answer in nM, writing the number without its unit.

Name the recorded Kd for COc1n[nH]c2ncc(C#Cc3c(F)ccc(NS(=O)(=O)c4cccc(C#N)c4)c3F)cc12 .
460
